Reference for the values: patent US8778923B2

This listing pairs molecules with measured EC50.
- experimental target: GLP-1R (Homo sapiens, UniProt P43220)
- Sequence (P43220 24-463): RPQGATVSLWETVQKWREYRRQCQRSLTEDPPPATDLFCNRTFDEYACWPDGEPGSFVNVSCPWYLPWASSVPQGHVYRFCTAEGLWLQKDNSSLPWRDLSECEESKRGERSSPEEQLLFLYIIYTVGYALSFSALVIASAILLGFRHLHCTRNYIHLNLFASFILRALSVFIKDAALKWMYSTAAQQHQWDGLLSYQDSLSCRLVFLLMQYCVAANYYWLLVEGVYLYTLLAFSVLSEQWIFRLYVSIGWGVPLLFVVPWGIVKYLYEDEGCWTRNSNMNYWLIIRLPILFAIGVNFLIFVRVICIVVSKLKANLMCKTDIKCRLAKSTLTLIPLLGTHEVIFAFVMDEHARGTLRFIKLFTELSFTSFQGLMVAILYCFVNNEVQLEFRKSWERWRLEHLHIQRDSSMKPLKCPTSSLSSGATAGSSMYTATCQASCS
- Sequence (P01275 100-127 partner limits assumed): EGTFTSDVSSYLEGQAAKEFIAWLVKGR
- experiment: EC20 GLP-1(9-36) PAM cAMP assay: dose response of compound in the presence of fixed concentration of GLP-1(9-36)
- cond: GLP-1R CRE-bla CHO-K1 cells, compound dose response in presence of fixed concentration of GLP-1(9-36)

Example entries begin here.
{"molecule": "CCCCCCCOc1ccc(-c2cnc(-c3ccc(C[C@H](NC(=O)c4cnc(C(C)C)s4)C(=O)O)cc3)nc2)cc1 [Compound 148]", "experimental target": "GLP-1R (Homo sapiens, UniProt P43220)", "EC50": "0.8 to 2.5 µM"}
{"molecule": "CC(C)(C)c1ccc(C(=O)N[C@@H](Cc2ccc(-c3noc(-c4ccc(C(F)(F)F)cc4)n3)cc2)C(=O)O)cc1 [Compound 11]", "experimental target": "GLP-1R (Homo sapiens, UniProt P43220)", "EC50": "0.8 to 2.5 µM"}
{"molecule": "CCCCCCCOc1ccc(-c2cnc(-c3ccc(C[C@H](NC(=O)c4ccc(CCC)cc4)C(=O)O)cc3)nc2)cc1 [Compound 101]", "experimental target": "GLP-1R (Homo sapiens, UniProt P43220)", "EC50": "0.8 to 2.5 µM"}
{"molecule": "COc1cc(OC)cc(-c2nc(-c3ccc(C[C@H](NC(=O)c4ccc(C(C)(C)C)cc4)C(=O)O)cc3)no2)c1 [Compound 38]", "experimental target": "GLP-1R (Homo sapiens, UniProt P43220)", "EC50": "0.8 to 2.5 µM"}
{"molecule": "CC(C)(C)c1ccc(-c2cnc(-c3ccc(C[C@H](NC(=O)c4ccc(C(C)(C)C)s4)C(=O)N4CCC[C@H]4C(=O)O)cc3)nc2)cc1 [Compound 362]", "experimental target": "GLP-1R (Homo sapiens, UniProt P43220)", "EC50": "2.5 to 5 µM"}

Now for another entry.
Quickly give me recorded EC50 for CCCCCCCOc1ccc(-c2cnc(-c3ccc(C[C@H](NC(=O)c4ccc(C(C)=O)s4)C(=O)O)cc3)nc2)cc1 [Compound 154]
< 0.8 µM

----------
- experimental target: GLP-1R (Homo sapiens)
- experiment: EC20 GLP-1(9-36) PAM cAMP assay: dose response of compound in the presence of fixed concentration of GLP-1(9-36)
- cond: GLP-1R CRE-bla CHO-K1 cells, compound dose response in presence of fixed concentration of GLP-1(9-36)
Recorded EC50 values for a group of compounds are listed next.

{"compound": "CCCCCCCOc1ccc(-c2cnc(-c3ccc(C[C@H](NC(=O)c4ccc(C(C)C)cc4)C(=O)N[C@H](CC(C)C)C(=O)O)cc3)nc2)cc1 [Compound 313]", "EC50": "800 to 2500 nM"}
{"compound": "CCCCCCCOc1ccc(-c2cnc(-c3ccc(C[C@H](NC(=O)c4csc(C(C)C)c4)C(=O)O)cc3)nc2)cc1 [Compound 146]", "EC50": "2500 to 5000 nM"}
{"compound": "CC(C)(C)c1ccc(-c2cnc(-c3ccc(C[C@H](NC(=O)c4ccc(C(F)(F)F)cc4)C(=O)O)cc3)nc2)cc1 [Compound 174]", "EC50": "< 800 nM"}
{"compound": "CN(C)c1ccc(-c2cnc(-c3ccc(C[C@H](NC(=O)c4ccc(C(C)(C)C)cc4)C(=O)O)cc3)nc2)cc1 [Compound 201]", "EC50": "2500 to 5000 nM"}
{"compound": "CCCCCCCOc1ccc(-c2cnc(-c3ccc(C[C@H](NC(=O)c4cc(C(C)C)on4)C(=O)O)cc3)nc2)cc1 [Compound 135]", "EC50": "800 to 2500 nM"}
{"compound": "COc1ccc(C(=O)N[C@@H](Cc2ccc(-c3ncc(-c4ccc(C(C)(C)C)cc4)cn3)cc2)C(=O)O)cc1 [Compound 170]", "EC50": "800 to 2500 nM"}

For the compound CC(C)(C)Oc1ccc(-c2nc(-c3ccc(C[C@H](NC(=O)c4ccc(C(C)(C)C)cc4)C(=O)O)cc3)no2)cc1 [Compound 56] , report EC50.
2500 to 5000 nM

----------
Let's look at some compounds and their measured pEC50.
- experimental target: GLP-1R (Homo sapiens, UniProt P43220)
- Construct: host or cells: CRE-bla CHO-K1
- experiment: EC20 GLP-1(9-36) PAM cAMP assay: dose response of compound in the presence of fixed concentration of GLP-1(9-36)
- Type: cell-based
- cond: GLP-1R CRE-bla CHO-K1 cells, compound dose response in presence of fixed concentration of GLP-1(9-36)
pEC50: −log10 of the molar value.

Consider the worked cases shown below.
{"compound": "CNc1cccc(-c2cnc(-c3ccc(C[C@H](NC(=O)c4ccc(C(C)(C)C)cc4)C(=O)O)cc3)nc2)c1 [Compound 234]", "pEC50": "5.00 to 5.30"}
{"compound": "CCCCCCCOc1ccc(-c2cnc(-c3ccc(C[C@H](NC(=O)c4ccc(C(C)(C)C)cc4)C(=O)O)cc3)nn2)cc1 [Compound 274]", "pEC50": "5.60 to 6.10"}

# input for lookup
Provide pEC50, tested on GLP-1R (Homo sapiens, UniProt P43220), for CCCCCCCOc1ccc(-c2cnc(-c3ccc(C[C@H](NC(=O)c4ccc(C(C)(C)C)s4)C(=O)NCCC(=O)O)cc3)nc2)cc1 [Compound 336] .
> 6.10

----------
- experimental target: GLP-1R (Homo sapiens, UniProt P43220)
- experiment: EC20 GLP-1(9-36) PAM cAMP assay: dose response of compound in the presence of fixed concentration of GLP-1(9-36)
- cond: GLP-1R CRE-bla CHO-K1 cells, compound dose response in presence of fixed concentration of GLP-1(9-36)
result type: EC50

Worked cases, EC50 given:
{"smiles code": "CC(C)(C)c1ccc(C(=O)N[C@@H](Cc2ccc(-c3ncc(-c4ccc(N5CCCCC5)cc4)cn3)cc2)C(=O)O)cc1", "EC50": "800 to 2500 nM"}
{"smiles code": "CC(C)(C)c1ccc(C(=O)N[C@@H](Cc2ccc(-c3noc(-c4ccc(-c5cccc(F)c5)cc4)n3)cc2)C(=O)O)cc1", "EC50": "800 to 2500 nM"}
{"smiles code": "CCCCCCCOc1ccc(-c2coc(-c3ccc(C[C@H](NC(=O)c4ccc(C(C)(C)C)cc4)C(=O)O)cc3)n2)cc1", "EC50": "800 to 2500 nM"}
{"smiles code": "CCCCCCCOc1ccc(-c2ccc(-c3ccc(C[C@H](NC(=O)c4ccc(C(C)(C)C)s4)C(=O)O)cc3)nc2)cc1", "EC50": "< 800 nM"}

Quick one: give measured EC50 for CC(C)(C)c1ccc(-c2cnc(-c3ccc(C[C@H](NC(=O)c4cnn(C(C)(C)C)c4)C(=O)O)cc3)nc2)cc1
800 to 2500 nM

Supply EC50 value. Item: CCCCCCOC1=NCc2cc(-c3cnc(-c4ccc(C[C@H](NC(=O)c5ccc(C(C)(C)C)cc5)C(=O)O)cc4)nc3)ccc21
5000 to 10000 nM

----------
- experimental target: GLP-1R (Homo sapiens)
- experiment: EC20 GLP-1(9-36) PAM cAMP assay: dose response of compound in the presence of fixed concentration of GLP-1(9-36)
- cond: GLP-1R CRE-bla CHO-K1 cells, compound dose response in presence of fixed concentration of GLP-1(9-36)
pEC50: −log10 of the molar value.
Each record here notes measured pEC50.

Example molecules with recorded pEC50:
{"smiles code": "CC(C)(C)c1ccc(C(=O)N[C@@H](Cc2ccc(-c3ncc(N4CCC(C(C)(C)C)CC4)cn3)cc2)C(=O)O)cc1", "pEC50": "5.30 to 5.60"}
{"smiles code": "Cn1ccc2c(-c3nc(-c4ccc(C[C@H](NC(=O)c5ccc(C(C)(C)C)cc5)C(=O)O)cc4)no3)cccc21", "pEC50": "5.00 to 5.30"}

Alright, here's another molecule for you.
Tell me pEC50 reported for CCCCCCCOc1ccc(-c2ccc(-c3ccc(C[C@H](NC(=O)c4ccc(C(C)(C)C)s4)C(=O)NCC(=O)O)cc3)nc2)cc1
5.60 to 6.10

----------
- experimental target: GLP-1R (Homo sapiens, UniProt P43220)
- experiment: EC20 GLP-1(9-36) PAM cAMP assay: dose response of compound in the presence of fixed concentration of GLP-1(9-36)
- cond: GLP-1R CRE-bla CHO-K1 cells, compound dose response in presence of fixed concentration of GLP-1(9-36)
pEC50: −log10 of the molar value.
result type: pEC50

{"molecule": "CCCCCCCOc1ccc(-c2cnc(-c3ccc(C[C@H](NC(=O)c4ccc(C(C)(C)C)s4)C(=O)NC(CN4CCCC4)C(=O)O)cc3)nc2)cc1 (stereo partly drawn) [Compound 338]", "pEC50": "5.60 to 6.10"}

For the molecule CC(C)(C)c1ccc(-c2ccc(-c3ccc(C[C@H](NC(=O)c4ccc(C(C)(C)C)s4)C(=O)O)cc3)nc2)cc1 [Compound 278] , give its measured pEC50 value.
5.30 to 5.60

Complete the entry with pEC50 for CC(C)Nc1ccc(-c2cnc(-c3ccc(C[C@H](NC(=O)c4ccc(C(C)(C)C)cc4)C(=O)O)cc3)nc2)cc1 [Compound 235]
5.30 to 5.60

Quickly give me recorded pEC50 for CC(C)(C)c1ccc(C(=O)N[C@@H](Cc2ccc(-c3noc(-c4ccc(-c5ccc(Cl)cc5)cc4)n3)cc2)C(=O)O)cc1 [Compound 16]
5.00 to 5.30

For the molecule CC(C)Cc1ccc(C(=O)N[C@@H](Cc2ccc(-c3ncc(-c4ccc(C(C)(C)C)cc4)cn3)cc2)C(=O)O)cc1 [Compound 163] , give its measured pEC50 value.
5.60 to 6.10

Fill in pEC50 for record CC(C)(C)c1ccc(-c2cnc(-c3ccc(C[C@H](NC(=O)c4ccc(C(C)(C)C)s4)C(=O)N[C@H](CCC(N)=O)C(=O)O)cc3)nc2)cc1 [Compound 353]
5.60 to 6.10
